Test system: HCT-15 colon
Test: NCI tumour cell line growth inhibition, 48 h
VALUE_TYPE: TGI

1. CC(C)(C)C(=O)CC1=Nc2ccccc2SC1(O)CC(=O)C(C)(C)C (stereo unspecified) ... 52.8 µM
2. Nc1ccc(S(=O)(=O)Nc2nccs2)cc1 ... > 100 µM
3. CN1[C@@H]2C[C@@H](OC(=O)[C@H](CO)c3ccccc3)C[C@H]1[C@@H]1O[C@@H]12 ... > 100 µM
4. CN(C)CCN1C(=O)c2ccc3c4c(ccc(c24)C1=O)C(=O)N(CCN=C=S)C3=O ... 0.221 µM
5. Cc1cc(C(C)(C)CC(C)(C)C)ccc1OCCOCC[N+](C)(C)Cc1ccccc1 ... 44 µM
6. CC(=O)NC1c2ccccc2C(C)(C)C12CCC1(CC2)OCCO1 (stereo unspecified) ... > 100 µM
7. COc1ccc2cc(C(C)C(=O)N3CCOC3=O)ccc2c1 (stereo unspecified) ... > 100 µM
8. COc1ccc(CCN2COc3c([C@@H](C)CCC=C(C)C)ccc(C)c3C2)cc1OC ... 10.4 µM
9. Cc1ccc2c(c1)C(=O)C1(C2)Cc2cccc(C)c2C1=O (stereo unspecified) ... > 100 µM
10. COC(=O)C1=C(C)NC(C)=C(C(=O)OC)C1c1nc2sccn2c1[N+](=O)[O-] ... > 100 µM
11. O=c1c(C(c2ccc(Cl)cc2)c2c(O)c3ccccc3n(-c3ccccc3)c2=O)c(O)c2ccccc2n1-c1ccccc1 ... > 100 µM
12. COc1ccc(C2OC(c3ccncc3)=NN2C)cc1OC (stereo unspecified) ... > 100 µM
13. C=CC[C@]12C=C(OC)[C@@H](O)[C@](OC)(C(c3cc(OC)c4c(c3)OCO4)[C@H]1C)[C@H]2OC(C)=O (stereo partly specified) ... > 100 µM
14. NC(=O)NCc1c(C(N)=O)ncn1Cc1ccccc1 ... > 100 µM
15. CN(C)c1cc[c]([Sn]([c]2ccc(N(C)C)cc2)([c]2ccc(N(C)C)cc2)[c]2ccc(N(C)C)cc2)cc1 ... > 100 µM
16. COc1cc(NC(C)CCCN)c2nccc(C)c2c1 (stereo unspecified) ... 49.7 µM
17. O=C1OC2CCCC[C@@H]2C2C[C@]34CCCCC3[C@@H](C(=O)O4)C12 (stereo partly specified) ... > 100 µM
18. O=c1oc2ccc([N+](=O)[O-])cc2c(Nc2ccc3c(c2)Oc2ccccc2O3)c1[N+](=O)[O-] ... > 100 µM
19. Nc1nc(Cl)cc(NCC2(CO)CCCC2)n1 ... > 100 µM
20. O=C1c2cccnc2-c2nccc3c2c1nc1cc(Br)ccc13 ... 0.25 µM
21. CC(=O)[C@@]1(O)CC[C@H]2[C@@H]3C[C@H](C)C4=CC(=O)C=C[C@]4(C)[C@@]3(F)[C@@H](O)C[C@@]21C ... > 100 µM
22. C=CCOc1ccc(C2C(C(=O)OCC)C(=O)CC(C)(O)C2C(=O)OCC)cc1OC (stereo unspecified) ... > 100 µM
23. CC1CCCC(CC(=O)O)(CC(=O)O)C1 (stereo unspecified) ... > 100 µM
24. O=C(N/N=C/c1cc(Br)cc(Br)c1[O-])c1ccccc1O.O=C(N/N=C/c1cc(Br)cc(Br)c1[O-])c1ccccc1O.[Cu+2] ... 1.77 µM
25. C[N+]12CCCCC1C(CN1C(=O)Cc3c4ccccc4c(c4ccccc34)CC1=O)CCC2 (stereo unspecified) ... > 100 µM
26. Cn1c(=O)c(Cc2ccccc2F)cc2cnc(NC3CCOCC3)nc21 ... > 25 µM
27. Nc1ccc(C(=O)N2CCC[C@H]2CO)c(N)c1 ... > 100 µM
28. ClCc1cccc(Cn2cnc3nc(Cl)nc(Cl)c32)c1 ... 2.13 µM
29. COc1ccc2c(cnc3c4cc(OC)c(OC)cc4ccc23)c1 ... > 100 µM
30. Cc1ccc(O)c(-c2cscn2)c1 ... > 100 µM
31. CN1C2CCC1CC(C)(O)C2 (stereo unspecified) ... > 100 µM

###

Entries annotated with measured TGI
Test system: HOP-62 NSCLC
Experiment: NCI tumour cell line growth inhibition, 48 h
VALUE_TYPE: TGI (µM)

1. Cn1c2ccccc2c(=NNc2cccc(C(=O)O)c2)c2ccccc21 ... 47.8
2. CC(=O)C(=CN1CCN(C(=O)c2ccco2)C1=S)C(C)=O ... 41.7

###

System: SR leukemia
Assay: NCI tumour cell line growth inhibition, 48 h
VALUE_TYPE: TGI (µM)

1) CC(C)(C)c1cc(C(O)(C(F)(F)F)C(F)(F)F)c2c(c1)C(C(F)(F)F)(C(F)(F)F)OC(C(C)(C)C)N2 (stereo not given) ... 7.2
2) O=C(CCC1OCCO1)Nc1cc(NCc2ccccc2)ccc1OCc1ccccc1 ... 92
3) ClCc1cccc(Cn2cnc3nc(Cl)nc(Cl)c32)c1 ... 2.6
4) CC1=C(O)C(=O)C=C2C1=CC=C1[C@@]2(C)CC[C@@]2(C)[C@@H]3C[C@](C)(C(=O)O)CC[C@]3(C)CC[C@]12C ... 0.0336
5) C=C1C(=O)C=C[C@]2(C)CC[C@H]3C(=C)C(=O)O[C@@H]3[C@@H]12 ... 6.11
6) COc1cc(OC)c(C2c3cc4c(cc3OC(N3CCCC3)C2C)OCO4)c(OC)c1 (stereo not given) ... 29.6

###

System: HS 578T breast
Test: NCI tumour cell line growth inhibition, 48 h
VALUE_TYPE: TGI

1. Cc1cc(NCc2ccccc2)c2ccccc2[n+]1CCCCCCCCCC[n+]1c(C)cc(NCc2ccccc2)c2ccccc21 ... 11.6 µM
2. CN(CCC#N)c1ccc(/C=C(\C#N)c2ccc(Br)cc2)cc1 ... > 100 µM
3. COc1ccc2c(cnc3c4cc(OC)c(OC)cc4ccc23)c1 ... > 100 µM
4. Clc1ccc(C=Nc2ccc3c(c2)Cc2ccccc2-3)c(Cl)c1 ... > 100 µM

###

Tested on: NCI-H23 lung
Assay: NCI tumour cell line growth inhibition, 48 h
VALUE_TYPE: TGI

1. N#CC1CC2(C1)OCCS2 (stereo unspecified) ... > 100 µM
2. Cc1ccc(S(=O)(=O)NC(=O)N[C@@H](Cc2cnc[nH]2)C(=O)O)cc1 ... > 100 µM
3. COc1nc2nccnc2c(=O)n1C ... > 10 µM
4. CN1COCc2c1ccc1cc3ccc4c(c3nc21)COCN4S(C)(=O)=O ... > 100 µM
5. CCCCON(OC(=O)c1ccc2ccc3cccc4ccc1c2c34)C(C)=O ... 35.5 µM
6. CCC/C(Cl)=N\OC(=O)Nc1ccc(OC(F)(F)F)cc1 ... 53.8 µM
7. O=c1cccc(C#CC#CC2=CCCCC2)o1 ... 2.87 µM
8. CCOC(=O)NC(Nc1ccc([N+](=O)[O-])cc1)(C(F)(F)F)C(F)(F)F ... > 100 µM
9. COc1ccc(-c2nn(-c3ccc(NC(=O)Nc4cc(C(F)(F)F)cc(C(F)(F)F)c4)cc3)cc2-c2ccncc2)cc1Cl ... > 100 µM
10. CN(C)CCN1C(=O)c2ccc3c4c(ccc(c24)C1=O)C(=O)N(CCN=C=S)C3=O ... 0.417 µM
11. C=C1C(=O)OC2/C=C(\COC(C)=O)CCC(OC(C)=O)C3=CC(OC3=O)C12 (stereo unspecified) ... 20.7 µM
12. O=C(O)/C=c1/c2ccccc2n2nc3ccccc3c12 ... > 100 µM
13. COc1ccc(/C=C/c2cc(OC)cc(=O)o2)cc1 ... > 100 µM
14. Nc1ccc(S2(c3ccc(N)cc3)C=C(c3ccccc3)C(c3ccccc3)=C2)cc1 ... > 100 µM
15. C=CCc1ccc(Oc2cc(CC=C)c3c(c2O)O[C@@H](CO)[C@H]3c2ccc(O)c(-c3cc(CC=C)ccc3O)c2)cc1 ... > 100 µM
16. CC(C(O)Cc1ccccc1)N(C)N=Nc1ccc([N+](=O)[O-])cc1 (stereo unspecified) ... 48.1 µM
17. CC(=O)N[C@H]1CSSC[C@@H](C(N)=O)NC(=O)[C@H](C(C)C)NC(=O)[C@H](C)NC(=O)[C@H](Cc2cnc[nH]2)NC1=O ... > 100 µM
18. O=c1c2ccccc2c(=O)c2c1[nH]c1c(-c3ccccc3)c(-c3ccccc3)c(=O)c12 ... 14.4 µM
19. COc1ccc(NS(=O)(=O)c2ccc(NC(NC(=O)CC(C)C)(C(F)(F)F)C(F)(F)F)cc2)nn1 ... > 100 µM
20. COc1ccc(CCN2COc3c([C@@H](C)CCC=C(C)C)ccc(C)c3C2)cc1OC ... 6.08 µM
21. Cn1c2ccccc2c(=O)c2cccc(C(=O)NC(CCCN=C(N)N)C(=O)O)c21 (stereo unspecified) ... > 100 µM
22. CSc1ncnc2c1ncn2CCC#N ... > 100 µM
23. Nc1ccn(C2OC(CO)C(O)C2O)c(=O)c1 (stereo unspecified) ... > 625 µM
24. OCc1ccc(C2CC(c3ccco3)=NN2c2ccccc2)o1 (stereo unspecified) ... > 100 µM
25. CCn1c(-c2ccc(OC(C)=O)cc2)c(C)c2cc(OC(C)=O)ccc21 ... 57.4 µM
26. O=C1/C(=C/c2ccc(Cl)cc2)CSc2ccccc21 ... 45.1 µM
27. CCOC(=O)NC(=O)c1cn(CCCOC(=O)CCCCCCCCCCC(=O)OCCCn2cc(C(=O)NC(=O)OCC)c(=O)[nH]c2=O)c(=O)[nH]c1=O ... > 100 µM
28. O=C(Nc1c(Cl)cc([N+](=O)[O-])cc1Cl)C(=O)C(C1OC(=O)c2ccccc21)[N+](=O)[O-] (stereo unspecified) ... > 100 µM
29. Nc1ccn(C2CCC(CO)O2)c(=O)n1 (stereo unspecified) ... > 1000 µM
30. CCCCN=C(c1ccccc1)N1CCOCC1 ... > 100 µM
31. CC(C)NC(=O)OCCN=c1c2ccccc2ccc2ccccc12 ... > 100 µM
